# Test system: soybean
# method-description: Test B pre/postemergence soybean
# Assay type: in vivo, Glycine max
# recorded-conditions: Rate 125 g/ha, Postemergence; scale 0 to 10, 0 is no effect, 10 is complete control
# Experimental: […] At the same time, these crop and weed species were also treated with postemergence applications of test chemicals formulated in the same manner. […] Treated plants and controls were maintained in a greenhouse for twelve to sixteen days, after which all species were compared to controls and visually evaluated. […]
result-type: Soybean plant response rating

molecule: CC(C)N(C(=O)n1oc(=O)n(C(C)C#N)c1=O)c1ccc(F)cc1F (centres unmarked)
result-type: Soybean plant response rating
experimental-result: 1
//
molecule: CC(C)N(C(=O)n1oc(=O)n(CC#N)c1=O)c1ccccc1
result-type: Soybean plant response rating
experimental-result: 0
//
molecule: CC(C)N(C(=O)n1oc(=O)n(C[Si](C)(C)c2ccccc2)c1=O)c1ccc(Cl)cc1
result-type: Soybean plant response rating
experimental-result: 0
//
molecule: CC(C)N(C(=O)n1oc(=O)n(CCS(C)(=O)=O)c1=O)c1ccc(F)cc1
result-type: Soybean plant response rating
experimental-result: 1
//
molecule: COC(C)n1c(=O)on(C(=O)N(c2ccccc2)C(C)C)c1=O (centres unmarked)
result-type: Soybean plant response rating
experimental-result: 0

###

Below, each of the compounds is paired with its reported Plant response rating, Cocklebur value.
# Test system: cocklebur
# method-description: Test B pre/postemergence cocklebur
# Assay type: in vivo, Xanthium strumarium
# recorded-conditions: Postemergence, Rate 62 g/ha; scale 0 to 10, 0 is no effect, 10 is complete control

compound: CC(C)N(C(=O)n1oc(=O)n(CCF)c1=O)c1ccc(F)cc1F
Plant response rating, Cocklebur: 2

compound: CC(C)N(C(=O)n1oc(=O)n(CC(=O)C2CC2)c1=O)c1ccc(Cl)cc1
Plant response rating, Cocklebur: 0

compound: C#CC(C=C(C)C)n1c(=O)on(C(=O)N(c2ccccc2)C(C)C)c1=O (centres unmarked)
Plant response rating, Cocklebur: 0

compound: CCOC(CC)n1c(=O)on(C(=O)N(c2ccc(F)cc2F)C(C)C)c1=O (centres unmarked)
Plant response rating, Cocklebur: 0

compound: CCC(C)n1c(=O)on(C(=O)N(c2ccccc2)C(C)C)c1=O (centres unmarked)
Plant response rating, Cocklebur: 0

###

# Tested on: giant foxtail
# method-description: Test B pre/postemergence giant foxtail
# Type: in vivo, Setaria faberii
# recorded-conditions: Preemergence, Rate 125 g/ha; scale 0 to 10, 0 is no effect, 10 is complete control
result-type: Giant foxtail plant response rating

molecule: CC(C)N(C(=O)n1oc(=O)n(CCC(F)=C(F)F)c1=O)c1ccccc1 [Compound 566]
result-type: Giant foxtail plant response rating
experimental-result: 10
//
molecule: CC(C)N(C(=O)n1oc(=O)n(CC2=NCCO2)c1=O)c1ccccc1 [Compound 495]
result-type: Giant foxtail plant response rating
experimental-result: 0
//
molecule: Cc1noc(C)c1Cn1c(=O)on(C(=O)N(c2ccccc2)C(C)C)c1=O [Compound 569]
result-type: Giant foxtail plant response rating
experimental-result: 9
//
molecule: CC(C)N(C(=O)n1oc(=O)n(CCC2OCCO2)c1=O)c1ccccc1 [Compound 560]
result-type: Giant foxtail plant response rating
experimental-result: 10

###

# Tested on: wheat
# method-description: Test B pre/postemergence wheat
# Type: in vivo, Triticum aestivum
# recorded-conditions: Preemergence, Rate 125 g/ha; 0 is no effect, 10 is complete control
# Experimental: […] At the same time, these crop and weed species were also treated with postemergence applications of test chemicals formulated in the same manner. […] Treated plants and controls were maintained in a greenhouse for twelve to sixteen days, after which all species were compared to controls and visually evaluated. […]
result-type: Wheat plant response rating (0 to 10 scale)

smiles-string: CC(C)N(Cc1ccccc1)C(=O)n1oc(=O)n(C(C)C)c1=O
experimental-result: 0

smiles-string: CC(C)N(C(=O)n1oc(=O)n([C@@H](C)c2ccccc2)c1=O)c1ccc(F)cc1
experimental-result: 0

smiles-string: CC(C)N(C(=O)n1oc(=O)n(-c2cnn(C)c2)c1=O)c1ccccc1
experimental-result: 0

smiles-string: CC(C)N(C(=O)n1oc(=O)n(N(C)C)c1=O)c1ccc(F)cc1
experimental-result: 6

smiles-string: CCN(CC)C(=O)n1oc(=O)n(Cc2ccccc2)c1=O
experimental-result: 0

These measurements were taken from patent US6737383B1.
